From: the NIST ThermoML archive (doi:10.1016/j.fluid.2014.05.023)

# ASSAY INFO: activity coefficient (dimensionless); of the first substance listed, at infinite dilution; xn = mol fraction of the nth substance listed
# CONDITIONS USED: 333.15 K; 101 kPa; Liquid; Chromatography; x1 = 0
ATTRIBUTE MEASURED: activity coefficient
Answer as a number with no unit attached.

* CCOC(=O)CC [ethyl propanoate] + O | 343
* CCCCOC(C)=O [butyl ethanoate] + O | 1140

Entry CCCOC(C)=O [propyl ethanoate] + O has what activity coefficient?
321

Also, CCCC(=O)OCC [ethyl butanoate] + O please.
1180

###

# ASSAY INFO: activity coefficient (dimensionless); of the first substance listed, at infinite dilution; xn = mol fraction of the nth substance listed
# CONDITIONS USED: 323.15 K; 101 kPa; Liquid; Chromatography; x1 = 0
The reader will find reported activity coefficient values listed item by item below.
// return just the number, without any unit appended

Quick one: activity coefficient of CCCC(=O)OCC [ethyl butanoate] + O ?
1180

Can you check CCCCOC(C)=O [butyl ethanoate] + O next?
1160

Record: CCOC(=O)CC [ethyl propanoate] + O
329

Queued: CCCOC(C)=O [propyl ethanoate] + O
319
